Tested on: SR leukemia
Assay: NCI-60 one-dose screen, 48 h (100 = growth as untreated, 0 = no growth, -100 = all killed)
Settings: 10 µM unless noted
Compounds without any hit were thinned out: in the full panel of roughly 83,000, 20% have a hit.
// assign y if growth falls strictly below 40%, else n (ties count as n)

Would you please look over these solved cases?
Req: Is 40% strictly greater than the compound's reported growth? compound: CC(C)(C)NC(=O)C(OC(=O)C1CCc2cc(F)ccc2O1)c1ccccc1Cl (stereo unspecified)
Resp: n

Req: Is 40% strictly greater than the compound's reported growth? compound: `CCCCCCCCCCCCCC[N+](C)(C)CCCCCCCCCCCCCC`
Resp: y

Req: Is 40% strictly greater than the compound's reported growth? compound: `COc1ccc(C(=O)/C=C/c2cn(-c3ccccc3)nc2-c2cccc(Nc3ccnc4cc(Cl)ccc34)c2)cc1`
Resp: y

Continuing:
Req: Is 40% strictly greater than the compound's reported growth? compound: O=C(Nc1ccccc1)C(CCCCN1C(=O)c2ccccc2C1=O)N1C(=O)c2ccccc2C1=O (stereo unspecified)
Resp: n

Req: Is 40% strictly greater than the compound's reported growth? compound: `O=C(NNC(=S)Nc1ccccc1)c1ccc(Nc2ncnc3c2cnn3-c2cccc(Br)c2)cc1`
Resp: n

Req: Is 40% strictly greater than the compound's reported growth? compound: COc1cc(NC(C)CCCN)c2ncccc2c1Oc1ccc(Cl)cc1 (stereo unspecified)
Resp: n

Req: Is 40% strictly greater than the compound's reported growth? compound: `COc1ccccc1NC(=O)OCC12COCN1COC2`
Resp: n

###

System: SR leukemia
Assay: NCI-60 one-dose screen, 48 h (100 = growth as untreated, 0 = no growth, -100 = all killed)
Settings: 10 µM unless noted
About 83,000 compounds went through this panel and 20% of them were active in at least one assay; those are over-represented in the sample as a whole.
measurement.label: growth (%)
Could you give me the number in %? Just the number is fine.

Form: compound = `COc1cc(CN2CCO[C@H](COc3cccc(F)c3)C2)ccc1Cl` ; growth = 50.8

Form: compound = `C=CCOc1c(Br)cc(Br)cc1Br` ; growth = 34.8

Form: compound = CCCCNCCC(O)c1cc2ccc(C(F)(F)F)cc2c2cc(C(F)(F)F)ccc12 (stereo unspecified) ; growth = -70.2

Form: compound = C=C(C)C1CCC2(C(=O)O)CCC3(C)C(CCC4C5(C)CCC(O)C(C)(C)C5CCC43C)C12 (stereo unspecified) ; growth = 9.38

Form: compound = CCc1ccc2c(c1)N(CCO)C1=C(C(=O)OC1)C2c1cccc(Br)c1 (stereo unspecified) ; growth = 28.6

Continuing:
Form: compound = `CCn1c(CN2CCN(Cc3ccccc3)CC2)nc2cc(NC(=O)c3cccs3)ccc21` ; growth = -9.71

Form: compound = CNCc1ccccc1CN(CC(=O)Nc1ccc2c(c1)CC1(C2)C(=O)Nc2ncccc21)C(=O)C(C)(C)C (stereo unspecified) ; growth = 110

Form: compound = CCN(CC)CCCC(C)N/C(c1cccc(OC)c1)=c1\c(=O)[nH]n(-c2c3ccccc3nc3ccccc23)c(=O)\c1=C(/NC(C)CCCN(CC)CC)c1cccc(OC)c1 (stereo unspecified) ; growth = 0.449

Form: compound = `Nc1c(C(=O)Nc2cccc(Cl)c2)sc2ncc(Br)cc12` ; growth = 71.7

###

growth by entry:
System: NCI-H522 lung
Assay: NCI-60 one-dose screen, 48 h (100 = growth as untreated, 0 = no growth, -100 = all killed)
Conditions: 10 µM unless noted
The panel holds about 83,000 compounds, 20% with a hit somewhere; the sample as a whole holds those more often.
Could you give me the number in %? Just the number is fine.

Worked examples, 4 molecules total:
Form: molecule = `CC(=O)c1ccc(Nc2nc(Cl)nc(Oc3c(Cl)cccc3Cl)n2)cc1` ; growth = 64.4

Form: molecule = `CCCCCCCCCCCCCC[N+](C)(C)CCCCCCCCCCCCCC` ; growth = 47.3

Form: molecule = `Clc1ccc(Nc2ncnc3c2sc2ncccc23)cc1` ; growth = 31.5

Form: molecule = `Cn1nc(C(F)(F)F)cc1-c1c[nH]c(OCc2ccc(Cl)cc2)c(-c2ccc(Cl)c(C(F)(F)F)c2)c1=O` ; growth = -1.66

Continuing:
Form: molecule = `CC(=O)c1nn(-c2ccccc2)/c(=N\N=C\c2coc3ccc(F)cc3c2=O)s1` ; growth = 101

Form: molecule = `CNCCCNc1ccnc2cc(Cl)ccc12` ; growth = -62.3

Form: molecule = CC1=C(C(=O)Nc2ccc(F)cc2)C(c2ccc(C)cc2)C2=C(CC(C)(C)CC2=O)N1 (stereo not given) ; growth = 91.2

Form: molecule = `C/C(=N\OC(=O)Nc1cccc(Cl)c1)c1ccccc1` ; growth = 91.9

Form: molecule = `COc1ccc(/C(=C\c2cc(OC)c(OC)c(OC)c2)C(=O)N2CCNCC2)cc1` ; growth = 79.1

Form: molecule = `C=CCn1c(SCC(=O)Nc2ccc(/C(C)=N\O)cc2)nnc1-c1cc(-c2ccc(Cl)cc2)nc2ccccc12` ; growth = 22.4

Form: molecule = `C/C(=C\C(=N\N=C(N)N)c1ccc(Cl)cc1)c1ccc(Cl)cc1` ; growth = -88.4

Form: molecule = `Fc1ccc(-c2ccnc3nc(-c4ccncc4)nn23)cc1` ; growth = 107

Form: molecule = COC(=O)C(CCC(=O)CCl)N1C(=O)c2ccccc2C1=O (stereo not given) ; growth = -15.1

Form: molecule = `[Ag].[Ag].[NH-]S(=O)(=O)c1ccc(N=Nc2cc(N=Nc3ccc(S([NH-])(=O)=O)cc3)c3c(NC(=O)C(Cl)Cl)cccc3c2OC(=O)C(Cl)Cl)cc1.[c-]1nccs1.[c-]1nccs1` ; growth = -86.4

Form: molecule = `C=CCn1c(C)nc2cc(Nc3nc(N4CCCC4)nc4nc[nH]c34)ccc21` ; growth = 56.3

Form: molecule = `O=S(=O)(NCC[C@@H]1C[C@H]1c1ccc2ccccc2c1)c1ccc(C(F)(F)F)cc1` ; growth = 83.8

Form: molecule = OC(c1cc(-c2ccc(C(F)(F)F)cc2)nc(-c2ccc(C(F)(F)F)cc2)c1)C1CCCCN1 (stereo not given) ; growth = -78.7

Form: molecule = `Cc1ccc(NC(=O)c2[nH]c(SCCN(C)C)nc2-c2ccc(F)cc2)cc1Nc1ccc2ncn(C)c(=O)c2c1` ; growth = 69.5

Form: molecule = `O=C(NC1CC1)c1ccc(-c2nc3ccc4[nH]ncc4c3c3c2CCCC3)cc1` ; growth = 18.9

Form: molecule = `Cc1cc(C)c([O-])c(CN(C)CCN(C)Cc2cc(C)cc(C)c2[O-])c1.O=C([O-])c1cccc(C(=O)[O-])n1.[Ti+4]` ; growth = -47

Form: molecule = Nc1ncnc2c1N=C(c1ccc(F)cc1)CC(c1sc(Cl)nc1Cl)N2 (stereo not given) ; growth = 88.7

Form: molecule = `O=C(/C=C/c1ccccc1)n1c(-c2ccccc2)nc2ccccc21` ; growth = 102

###

Tested on: A549/ATCC NSCLC
Experiment: NCI-60 one-dose screen, 48 h (100 = growth as untreated, 0 = no growth, -100 = all killed)
Settings: 10 µM unless noted
The panel holds about 83,000 compounds, 20% with a hit somewhere; the sample as a whole holds those more often.
growth below 70% gives Not met; growth at or above it gives Met.

Req: Decide: growth of `CCN(CC)CCCNc1cccc2c(C)cc(OC)nc12` >= 70%?
Resp: Met

Req: Decide: growth of COc1cc(C2C=C(C)N=C3SC=NN32)cc(OC)c1OC (stereo unspecified) >= 70%?
Resp: Met

Req: Decide: growth of `COc1cc2c(cc1C)NC(=O)/C2=C\c1c[nH]c2ccccc12` >= 70%?
Resp: Not met

Req: Decide: growth of `O=[N+]([O-])c1cccc([I+]c2ccccc2)c1` >= 70%?
Resp: Not met

Shifting focus to the compound that follows.
Req: Decide: growth of `CCCc1n(Cc2ccc3ccccc3n2)cc[n+]1Cc1ccc2ccccc2n1` >= 70%?
Resp: Not met

###

Tested on: NCI-H226 lung
Assay: NCI-60 one-dose screen, 48 h (100 = growth as untreated, 0 = no growth, -100 = all killed)
Conditions: 10 µM unless noted
About 83,000 compounds went through this panel and 20% of them were active in at least one assay; those are over-represented in the sample as a whole.
// assign met if growth falls strictly below 70%, else not met (ties count as not met)

Req: Is 70% strictly greater than the compound's reported growth? compound: `Nc1nc(N)c2cc(Sc3ccc(Cl)cc3)ccc2n1`
Resp: met

Req: Is 70% strictly greater than the compound's reported growth? compound: CC1=NC(c2ccc(Cl)cc2)C2=C(N1)/C(=C/c1ccc(Cl)cc1)CCC2 (centres undefined)
Resp: not met

Req: Is 70% strictly greater than the compound's reported growth? compound: `CN1CCN(Cc2ccc(NC(=O)c3cnc(F)c(C#Cc4cnc(N)c5ncccc45)c3)cc2C(F)(F)F)CC1`
Resp: met

Req: Is 70% strictly greater than the compound's reported growth? compound: `COc1ccc2nc(NC(=O)/C(=C/c3cc(OC)c(OC)c(OC)c3)c3ccc(OC)c(OC)c3)sc2c1`
Resp: not met

Req: Is 70% strictly greater than the compound's reported growth? compound: `C[C@@H]1C[C@H](N)C[C@H](c2ccncc2NC(=O)c2ccc(F)c(-c3c(F)cccc3F)n2)C1`
Resp: met

Req: Is 70% strictly greater than the compound's reported growth? compound: `CCCCCCCCCCCCCCCc1cc(O)ccc1[N+](=O)[O-]`
Resp: not met

Req: Is 70% strictly greater than the compound's reported growth? compound: `Cc1c(-c2ccc(-c3ccccc3F)cc2)nc2ccc(F)cc2c1C(=O)O`
Resp: met

Req: Is 70% strictly greater than the compound's reported growth? compound: `COc1ccc(-c2cnc3ccnn3c2-c2cc(OC)c(OC)c(OC)c2)cc1`
Resp: met
